Every entry's value here was drawn from patent US9469650B2.

A short record of CC50 observed with KM12 follows.
Report the figure in µM without appending any unit label.

Example entries begin here.
C=C1C(=O)O[C@H]2[C@H]1CC/C(COC(=O)NCCN1CCCCC1)=C\CC[C@@]1(C)O[C@@H]21 [JVM 2-13]	61.6
C=C1C(=O)O[C@H]2[C@H]1CC/C(COC(=O)N1CCN(C)CC1)=C\CC[C@@]1(C)O[C@@H]21 [JVM 2-44]	68.9

Please provide the recorded CC50 for C=C1C(=O)O[C@H]2[C@H]1CC/C(COC(=O)N1CCC(F)(F)CC1)=C\CC[C@@]1(C)O[C@@H]21 [JVM 2-66] , tested on KM12.
54.5

Look up CC50 with KM12 for this molecule: C=C1C(=O)O[C@H]2[C@H]1CC/C(COC(=O)NC)=C\CC[C@@]1(C)O[C@@H]21 [JVM 2-57]
55.9

Entry C=C1C(=O)O[C@H]2[C@H]1CC/C(COC(=O)CCC(=O)N1CCC(C)CC1)=C\CC[C@@]1(C)O[C@@H]21 [JVM 2-70] , system KM12: what CC50 was measured?
56.6
